Please provide measured CC50 for the entries that follow.
assay: Toxicity on treated, uninfected RD cells (MTS/PMS readout); format: cell-based; conditions: human, uninfected rhabdomyosarcoma (RD) cells, uninfected, treated RD cells; MTS/PMS; at least three independent dose-response curves
Give bare numbers, in µM.

Below are worked cases with known answers.
OC[C@H]1O[C@@H](n2cnc3c(NCc4cccc(F)c4)ncnc32)[C@H](O)[C@@H]1O
6.2
OC[C@H]1O[C@@H](n2cnc3c(NCc4ccccc4)ncnc32)[C@H](O)[C@@H]1O
4.3
OC[C@H]1O[C@@H](n2cnc3c(NCc4ccco4)ncnc32)[C@H](O)[C@@H]1O [Compound 3, N^6-furfuryladenosine, reference compound]
7.8
OC[C@H]1O[C@@H](n2cnc3c(NCc4ccc(F)cc4)ncnc32)[C@H](O)[C@@H]1O
2.7
OC[C@H]1O[C@@H](n2cnc3c(NCc4ccccc4F)ncnc32)[C@H](O)[C@@H]1O
13.3

[in] Name the recorded CC50 for CC(C)=CCNc1ncnc2c1ncn2[C@@H]1O[C@H](CO)[C@@H](O)[C@H]1O [Compound 2, N^6-isopenthenyladenosine, reference compound] .
[out] 6
